Task for the reader: assign each of the following sequences its reported self-aminoacylation.
Test system: biotinyl-Val-oxazolone
assay.notes: self-aminoacylation, catalytic enhancement (BVO) (fold over background); higher = more active; k-Seq, kA / k0A0; sequences stand for … in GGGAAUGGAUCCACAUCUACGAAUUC…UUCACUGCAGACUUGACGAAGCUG
This sample holds only a part of the variants without activity.

> print(dat)
                            sequence.record           target.entity  result
1  AAGUGUUCUAAUAGUCGCAAG [Fam3.1 aminoacylation ribozyme variant]  biotinyl-Val-oxazolone    1.32

Provide reported self-aminoacylation for each item, in the same order as listed.
1. AUUAUCCUGGUCAUCGACUGA [Fam2.1 aminoacylation ribozyme variant]
2. CUACAUCAAACAAUCGCUCUG [Fam1A.1 aminoacylation ribozyme variant]
3. AUGUUUGCCAAUAGUCGCAAG [Fam3.1 aminoacylation ribozyme variant]
4. AUUACUCUGGUUAUCGAGUGA [Fam2.1 aminoacylation ribozyme variant]
5. AAGUUUGCUAAUAGUGGCUAG [Fam3.1 aminoacylation ribozyme variant]
6. AUGACUCUGGUCAUCGAGUGA [Fam2.1 aminoacylation ribozyme variant]
7. UCACACUUCGAGCAAUCGGUC [Fam1B.1 aminoacylation ribozyme variant]
8. AUUCACCUCUGUCAUCGGGUG [Fam2.2 aminoacylation ribozyme variant]

Response given:
1: 0.785; 2: 0.878; 3: 1.33; 4: 4.2; 5: 0.862; 6: 2.75; 7: 1.05; 8: 4.06
